The origin of these recorded values is ChEMBL document CHEMBL3997818.

selectivity ratio for assorted compounds
# method: Selectivity index, ratio of TC50 for MDCK cells to IC50 for Influenza A virus H1N1 infected in MDCK cells
# Assay type: toxicity, cell-based
# recorded-conditions: dog, read-out: Selectivity Index
measured-endpoint: selectivity ratio

compound	obs-value
C=C(C(=O)O)[C@@H]1CC[C@H](C)[C@@H]2CC(=O)C(C)=C2C1 [PECHUELOIC ACID]	4.3
NC(=O)c1ncn([C@@H]2O[C@H](CO)[C@@H](O)[C@H]2O)n1 [RIBAVIRIN]	560
C=C(C(=O)OC)[C@@H]1CC[C@H](C)[C@H]2C(=C(C)C(=O)[C@@H]2C(O)c2ccccc2)C1 (single isomer, unassigned)	2.1
C=C(C(=O)OC)[C@@H]1CC[C@H](C)[C@H]2C(=C(C)C(=O)[C@@H]2C(O)c2ccc([N+](=O)[O-])s2)C1 (single isomer, unassigned)	2.7

====

Recorded selectivity ratio values for a group of compounds are listed next.
# method: Selectivity index, ratio of TC50 for MDCK cells to IC50 for Influenza A virus H1N1 infected in MDCK cells
# Assay type: toxicity, cell-based
# recorded-conditions: dog, read-out: Selectivity Index

compound	selectivity ratio
C=C(C(=O)OC)[C@@H]1CC[C@H](C)[C@H]2C(=C(C)C(=O)[C@@H]2C(O)c2cc(C(F)(F)F)cc(C(F)(F)F)c2)C1 (single isomer, unassigned)	3
C=C(C(=O)OC)[C@@H]1CC[C@H](C)[C@H]2C(=C(C)C(=O)[C@@H]2C(O)c2cc(OC)c(OC)c(OC)c2)C1 (single isomer, unassigned)	13
C=C(C(=O)OC)[C@@H]1CC[C@H](C)[C@H]2C(=C(C)C(=O)[C@@H]2C(O)c2ccncc2)C1 (single isomer, unassigned)	7.5
C=C(C(=O)OC)[C@@H]1CC[C@H](C)[C@H]2C(=C(C)C(=O)[C@@H]2C(O)c2ccc(F)cc2)C1 (single isomer, unassigned)	4.3
C=C(C(=O)OC)[C@@H]1CC[C@H](C)[C@H]2C(=C(C)C(=O)[C@@H]2[C@H](O)/C=C(\C)CCC=C(C)C)C1	1.7
C=C(C(=O)OC)[C@@H]1CC[C@H](C)[C@H]2C(=C(C)C(=O)[C@@H]2C(O)c2cc(F)cc(F)c2)C1 (single isomer, unassigned)	12.2

====

# Test system: Influenza A virus H3N2
# method: Antiviral activity against Influenza A virus H3N2 infected in MDCK cells assessed as inhibition of virus-induced cytopathic effect after 40 hrs
# Type: functional, cell-based
List of log10 of IC50 values.
measured-endpoint: log10 of IC50 (log10 of the value in µg/mL)

compound	measured-endpoint	obs-value
C=C(C(=O)OC)[C@@H]1CC[C@H](C)[C@@H]2CC(=O)C(C)=C2C1	log10 of IC50	1.28
CCOC(=O)C1=C[C@@H](OC(CC)CC)[C@H](NC(C)=O)[C@@H](N)C1	log10 of IC50	0.23
C=C(C(=O)OC)[C@@H]1CC[C@H](C)[C@H]2C(=C(C)C(=O)[C@@H]2C(O)c2cccs2)C1 (single isomer, unassigned)	log10 of IC50	0.08
NC(=O)c1ncn([C@@H]2O[C@H](CO)[C@@H](O)[C@H]2O)n1	log10 of IC50	0.04
C=C(C(=O)OC)[C@@H]1CC[C@H](C)[C@H]2C(=C(C)C(=O)[C@@H]2C(O)c2cc(C(F)(F)F)cc(C(F)(F)F)c2)C1 (single isomer, unassigned)	log10 of IC50	1.27
